As shown below, each of these compounds has a reported hERG current change (%, negative = inhibition) at 10uM value.
- Assayed System: human ether-à-go-go-related gene (hERG) potassium channel (human);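 further: peak tail current of the secondary pulse compared with the same well before compound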
- Sequence (Q12809 whole entry, looked up): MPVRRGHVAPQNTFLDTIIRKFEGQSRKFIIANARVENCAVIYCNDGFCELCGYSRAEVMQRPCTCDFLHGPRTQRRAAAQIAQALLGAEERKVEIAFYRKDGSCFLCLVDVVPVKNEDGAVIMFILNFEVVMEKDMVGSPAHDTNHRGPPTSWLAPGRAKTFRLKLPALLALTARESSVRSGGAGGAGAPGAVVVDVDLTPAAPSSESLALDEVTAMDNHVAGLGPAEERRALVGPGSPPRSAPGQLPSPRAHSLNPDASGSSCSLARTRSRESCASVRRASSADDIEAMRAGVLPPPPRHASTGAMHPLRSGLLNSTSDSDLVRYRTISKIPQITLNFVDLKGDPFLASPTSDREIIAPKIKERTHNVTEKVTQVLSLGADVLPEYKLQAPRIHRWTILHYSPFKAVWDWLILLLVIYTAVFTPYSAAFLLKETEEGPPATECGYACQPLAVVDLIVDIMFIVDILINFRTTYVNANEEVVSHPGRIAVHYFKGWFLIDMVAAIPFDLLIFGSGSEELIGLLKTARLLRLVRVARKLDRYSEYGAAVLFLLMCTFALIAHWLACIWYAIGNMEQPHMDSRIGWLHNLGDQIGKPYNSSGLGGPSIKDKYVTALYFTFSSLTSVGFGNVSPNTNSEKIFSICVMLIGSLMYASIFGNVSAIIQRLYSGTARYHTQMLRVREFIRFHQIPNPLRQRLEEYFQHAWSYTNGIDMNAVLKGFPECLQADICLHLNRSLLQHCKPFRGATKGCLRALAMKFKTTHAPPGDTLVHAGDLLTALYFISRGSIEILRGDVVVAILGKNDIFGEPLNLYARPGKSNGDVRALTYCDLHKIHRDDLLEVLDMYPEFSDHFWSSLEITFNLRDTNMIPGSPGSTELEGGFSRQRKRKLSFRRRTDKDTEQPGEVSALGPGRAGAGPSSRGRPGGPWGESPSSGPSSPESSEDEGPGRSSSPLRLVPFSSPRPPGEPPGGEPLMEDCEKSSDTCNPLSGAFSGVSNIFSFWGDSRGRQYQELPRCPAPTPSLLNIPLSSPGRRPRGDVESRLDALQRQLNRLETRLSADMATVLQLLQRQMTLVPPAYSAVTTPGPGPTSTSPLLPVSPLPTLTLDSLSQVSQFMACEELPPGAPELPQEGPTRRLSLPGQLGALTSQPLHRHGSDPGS
- Experiment Description: primary screen, population patch clamp on CHO cells stably expressing hERG; higher = less effect of the substance
Out of some 310,000 compounds screened, about 14,000 (4.5%) showed an effect of 50% or more. The effect is printed as a negative number. Shown is part of a subset that was picked to be rich in strong results.
The reply should be a number in %, with the unit left off.

Use these answered entries as a reference point.
# Compound, Value Measured
records = [
    ("Cc1cc(=O)n2nc(N3CCC(C(=O)NCc4ccc(Cl)cc4)CC3)sc2n1", -70),
    ("Cc1cc(=O)n2nc(N3CCCC(C(=O)NCc4cccc(Br)c4)C3)sc2n1 (stereo not drawn)", -30.2),
    ("Cc1ccc(CNC(=O)C2CCN(c3nn4c(=O)cc(C)nc4s3)CC2)cc1", -41.9),
    ("Cc1cc(=O)n2nc(N3CCC(C(=O)NCc4cccc(Br)c4)CC3)sc2n1", -51.4),
    ("Cc1cc(=O)n2nc(N3CCC(C(=O)NCc4ccccc4)CC3)sc2n1", -3.68),
]

Exercise: # hERG current change (%, negative = inhibition) at 10uM lookup, item `CCOc1ccc(CCNC(=O)CN2C(=O)COc3ccc(S(=O)(=O)N4CCOCC4)cc32)cc1`
Solution: -6.84

Exercise: Thanks! And `COc1ccc(NC(=O)Cn2nnc(C(=O)NCc3cccs3)c2N)cc1` ?
Solution: 13.9

Exercise: Another compound to look at: `COC(=O)c1cc(Cl)c(NC(=O)/C=C/c2ccc(Cl)cc2)cc1OC`
Solution: -15.7

Exercise: Same lookup for `COc1ccc(CNC(=O)C2CCN(c3nn4c(=O)cc(C)nc4s3)CC2)cc1` , please.
Solution: -4.51

Each recorded value in this set is attributed to paper PMC4336329.
